# ASSAY SYSTEM: UniProt:Q9P1W9
# Sequence (Q9P1W9 whole entry): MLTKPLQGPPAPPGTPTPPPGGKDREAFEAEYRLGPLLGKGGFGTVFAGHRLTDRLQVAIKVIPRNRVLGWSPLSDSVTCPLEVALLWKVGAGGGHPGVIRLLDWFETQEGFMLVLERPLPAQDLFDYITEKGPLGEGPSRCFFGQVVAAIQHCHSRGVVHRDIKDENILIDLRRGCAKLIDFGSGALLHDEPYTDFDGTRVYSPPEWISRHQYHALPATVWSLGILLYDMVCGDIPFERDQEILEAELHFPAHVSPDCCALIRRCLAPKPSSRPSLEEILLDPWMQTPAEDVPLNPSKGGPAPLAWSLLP
# PROTOCOL: KinaseGlo Pim2 ATP depletion assay
# Format: biochemical
pIC50: −log10 of the molar value.
PROPERTY LABEL: pIC50

C=C[C@H]1OC(c2ccncc2NC(=O)c2nc(-c3c(F)cccc3F)c(F)cc2N)=C[C@@H](O)[C@@H]1O
8.70

[I] O=C(Nc1cnccc1[C@H]1C[C@@H](O)[C@@]2(O)CCC[C@H]2O1)c1ccc(F)c(-c2c(F)cccc2F)n1
[II] N#CC[C@H]1O[C@@H](c2ccncc2NC(=O)c2nc(-c3c(F)cccc3F)c(F)cc2N)C[C@@H](O)[C@@H]1O [Example 152]
[III] N#C[C@H]1O[C@@H](c2ccncc2NC(=O)c2nc(-c3nccs3)ccc2N)C[C@@H](O)[C@@H]1O
Exercise: Your job: order these 3 records by pIC50, ascending. Would you mind listing the labels in the order asked for?
Key: III, II, I
